MEASUREMENT KIND: melting point

>>> result("O=C(Cc1ccc2ccccc2c1)c1ccc(Oc2ccccc2)cc1")
"139 to 141 °C"
>>> result("N#Cc1ccc(C(=O)Cc2ccc3ccccc3c2)cc1")
"152 to 154 °C"
>>> result("Cc1ccc(C)c2cc(CC(=O)c3ccccc3)ccc12")
"123 to 124 °C"
>>> result("O=C(Cc1ccc2ccccc2c1)c1ccc(OC(F)(F)F)cc1")
"153 to 154 °C"
>>> result("COc1ccccc1C(=O)Cc1ccc2ccccc2c1")
"100 to 102 °C"
>>> result("COc1ccc(C(=O)Cc2ccc3ccccc3c2)cc1")
"125 to 127 °C"

----------
MEASUREMENT KIND: melting point

>>> result("O=C(Cc1ccc2ccccc2c1)c1ccc(Br)cc1")
"157 to 159 °C"
>>> result("COc1cccc(C(=O)Cc2ccc3ccccc3c2)c1")
"102 to 103 °C"
>>> result("O=C(Cc1ccc2ccccc2c1)c1ccc(CO)cc1")
"97 to 98 °C"
>>> result("COc1cc(OC)cc(C(=O)Cc2ccc3ccccc3c2)c1")
"70 to 71 °C"
>>> result("C(#Cc1ccc2cc3c(cc2c1)OCO3)c1ccccc1")
"154 to 155 °C"
